meta.source: patent US20150044231A1

Give Migration of human neutrophils (in % compared to migration in the absence of antibody) for every item shown.
# Tested System: T1, human C5a receptor (human, UniProt P21730 1-350)
# T1 sequence: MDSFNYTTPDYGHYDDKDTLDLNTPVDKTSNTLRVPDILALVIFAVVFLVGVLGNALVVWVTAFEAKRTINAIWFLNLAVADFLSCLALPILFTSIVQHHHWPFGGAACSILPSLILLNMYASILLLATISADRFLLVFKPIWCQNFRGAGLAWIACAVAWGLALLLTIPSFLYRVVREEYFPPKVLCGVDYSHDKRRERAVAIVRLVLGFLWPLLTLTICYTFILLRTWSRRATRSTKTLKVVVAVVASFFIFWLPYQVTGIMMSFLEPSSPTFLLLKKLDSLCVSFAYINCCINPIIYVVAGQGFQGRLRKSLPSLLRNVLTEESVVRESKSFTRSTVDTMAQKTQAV
# Method Summary: cell-based or functional assay
Number in %, nothing else.

INPUT: // returns reported Migration of human neutrophils (in % compared to migration in the absence of antibody) for input 35F24A3 (antibody, V domains shown, Human monoclonal antibody from HumAb mice, purified from hybridoma supernatant) VH: EVKLVESGGGLVKPGGSLKLSCSASGFAFSNYDMSWVRQTPEKRLEWVAAFSSDGYTFYPDSLKGRFTISRDNARNTLYLQMSSLGSEDTALYCCARHADYANYPVMDYWGQGTSVTVSS VL: DIQMTQSPSSLSASVGDRVTITCRASQGISSWLAWYQQKPEKAPKSLIYAASSLQSGVPSRFSGSGSGTDFTLTISSLQPEDFATYYCQQYNSYPRTFGQGTKVEIKR
OUTPUT: 30

INPUT: // returns reported Migration of human neutrophils (in % compared to migration in the absence of antibody) for input 35F12A2 (antibody, V domains shown, Human monoclonal antibody from HumAb mice, purified from hybridoma supernatant) VH: QVQLVESGGGVVQPGRSLRLSCVASGFTFSNYGMHWVRQAPGKGLEWVAVIWYDGINKYYADSVKGRFTISRDNSKSTLYLQMNSLRAEDTAVYYCAGTYYTSGSSKHFQPWGQGTLVTVSS VL: EIVLTQSPATLSLSPGERATLSCRASQSVSSYLSWYQQKPGQAPRLLIYDASNRATGIPARFSGSGSGTDFTLTISSLEPEDFAVYYCQQRSNWPTFGPGTKVDIKR
OUTPUT: 19

INPUT: // returns reported Migration of human neutrophils (in % compared to migration in the absence of antibody) for input 32F3A6 (antibody, V domains shown, Human monoclonal antibody from HumAb mice, purified from hybridoma supernatant) VH: EVQLVQSGGGLVHPGGSLRLSCAGSGFTFSSYVMHWVRQAPGKGLEWVSAIDTGGGTYYADSVKGRFTISRDNAKNSLYLQMNSLRAEDMAVYYCARDYYYYASGSYYKAFDIWGQGTMVTVSS VL: EIVLTQSPGTLSLSPGERATLSCRASQSVSSRYLAWYQQKPGQAPRLLIYGASSRATGIPDRFSGSGSGTDFTLTISRLEPEDFAVYYCQQYGSPLTFGQGTKLEIKR
OUTPUT: 2

INPUT: // returns reported Migration of human neutrophils (in % compared to migration in the absence of antibody) for input 35F32A3 (antibody, V domains shown, Human monoclonal antibody from HumAb mice, purified from hybridoma supernatant) VH: QVQLVESGGGLVRPGRSLRLSCAASGFTFRDYGMHWVRQAPGKSLEWVAVIWFDGINKYYGDSVKGRFTISRDNSKNTLYLQMNSLRAEDTAMYYCVGTYFGPGTTEFFQHWGQGTLVTVSS VL: EIVLTQSPATLSLSPGERATLSCRASQSVSSYLAWYQQKPGQAPRLLIYDASNRATGIPARFSGSGSGTDFTLTISSLEPEDFAVYYCQQRSNWPTFGPGTKVDIKR
OUTPUT: 11
